Tested on: Setaria viridis
experiment_description: Post-emergence herbicidal effect
Format: in vivo
particulars: 320 g/ha, assessed visually after about 3 weeks vs untreated controls
measure: post-emergence efficacy SETVI (%)
Report the figure in % without appending any unit label.

Which post-emergence efficacy SETVI is listed for Nc1nc(NC2CCc3sc(Cl)cc32)ncc1C(F)(F)F (racemic) [compound 256] ? 90

Param item: Nc1nc(N[C@@H]2CCCc3sccc32)ncc1C(F)(F)F [compound 46] 90

What do you get for Cc1cc2c(s1)CCCC2Nc1nc(N)c([S+](C)[O-])c(C(F)F)n1 (racemic) [compound 264] ? 80

Next entry: Cc1cc2c(s1)CCCC2Nc1ncc(C(F)(F)F)c(N)n1 (racemic) [compound 61] 90

Repeat with Cc1cc2c(s1)CCCC2Nc1ncc(-c2cncc(C(F)(F)F)c2)c(N)n1 (racemic) [compound 290] 60

What would you report for C/C(=N\O)c1cnc(NC2CCCc3sc(Cl)cc32)nc1C (racemic) [compound 260] ? 100

Consider next the molecule CS(=O)(=O)c1cnc(NC2CCCc3cc(Cl)sc32)nc1N (racemic) [compound 53] in the same way. 100

Consider next the molecule Cc1cc2c(s1)CCCC2Nc1nc(N)c(Br)c(C(F)F)n1 (racemic) [compound 314] in the same way. 60

====

Test system: Abutilon theophrasti
experiment_description: Pre-emergence herbicidal effect
Format: in vivo
particulars: Dosage 320 g/ha, scored visually after 3 weeks
measure: ABUTH pre-emergence efficacy (herbicidal activity) (%)
Unit % implied. Number only.

// query ABUTH pre-emergence efficacy (herbicidal activity) value for entry CC(=NO)c1cnc(NC2CCCc3sc(C)cc32)nc1N (stereo not drawn) [compound 286] 60

Follow-up entry: Cc1cc2c(s1)CCCC2Nc1nc(N)c([S+](C)[O-])c(C(C)F)n1 (racemic) [compound 309] 80

Request: Nc1nc(NC2CCCc3sc(Cl)cc32)ncc1C(F)(F)F (racemic) [compound 22] 80

One more molecule: Cc1cc2c(s1)CC(C)C2Nc1ncc(S(C)(=O)=O)c(N)n1 (racemic) [compound 17] 100

Please give the result for Cc1cc2c(s1)CCCC2Nc1ncc2c(n1)CCCC2=O (racemic) [compound 9] too. 100

Can you check Cc1cc2c(s1)CCCC2Nc1ncc(C(F)(F)F)c(N)n1 (racemic) [compound 61] next? 100

Also Cc1cc2c(s1)CCCC2Nc1nc(N)c(Br)c(C(F)F)n1 (racemic) [compound 284] ? 80

And the next one, CS(=O)(=O)c1cnc(N[C@@H]2CCCc3sccc32)nc1N [compound 24] ? 100

And the next one, Cc1cc2c(s1)CCCC2Nc1nc(N)c([S+](C)[O-])c(Cl)n1 (racemic) [compound 39] ? 80

====

Test system: Abutilon theophrasti
experiment_description: Pre-emergence herbicidal effect
Type: in vivo
particulars: Dosage 320 g/ha, scored visually after 3 weeks
measure: ABUTH pre-emergence efficacy (herbicidal activity) (%)
Write the answer as a number in %, unit excluded.

Can you share its ABUTH pre-emergence efficacy (herbicidal activity)? I mean this compound: Cc1cc2c(s1)CCC[C@H]2Nc1ncc(C(F)(F)F)c(N)n1 [compound 47] 100

What about C/C(=N\OC(C)C)c1cnc(NC2CCCc3sc(C)cc32)nc1N (racemic) [compound 288] ? 70

Note, next up: Cc1cc2c(s1)CCC[C@H]2Nc1ncc2c(n1)CCCS2(=O)=O [compound 44] 100

Request: Cc1cc2c(s1)CCC2Nc1ncc(S(C)(=O)=O)c(N)n1 (racemic) [compound 4] 100

What would you report for CC(=O)c1cnc(NC2CCCc3sc(C)cc32)nc1N (racemic) [compound 150] ? 70

Record: Cc1cc2c(s1)CCCC2Nc1ncc(S(C)(=O)=O)c(N)n1 (racemic) [compound 59] 100

Proceed to Cc1cc2c(s1)CCCC2Nc1ncc(C#N)c(N)n1 (racemic) [compound 52] 100

Try this compound too: Cc1sc2c(c1C)C(Nc1ncc(C(F)(F)F)c(N)n1)CCC2 (stereo not drawn) [compound 213] 100

Now the compound Cc1cc2c(s1)CCCC2Nc1ncc(C(F)(F)F)c(N)n1 (racemic) [compound 257] 100

====

Tested on: Echinochloa crus-galli
experiment_description: Pre-emergence herbicidal effect
Format: in vivo
particulars: Dosage 80 g/ha, scored visually after 3 weeks
measure: ECHCG pre-emergence efficacy (herbicidal activity) (%)
Write the number in % without appending the unit.

Record O=S1(=O)CCCc2nc(N[C@@H]3CCCc4sccc43)ncc21 : what is its ECHCG pre-emergence efficacy (herbicidal activity) with Echinochloa crus-galli? 100

Next entry: Cc1cc2c(s1)CCCC2Nc1nc(N)c(S(C)(=O)=O)c(Cl)n1 (racemic) 100

For N#Cc1cc2c(s1)C(Nc1ncc(C(F)(F)F)c(N)n1)CCC2 (racemic) then? 60

Now give it for Cc1cc2c(s1)CCCC2Nc1ncc(C(F)(F)F)c(N)n1 (racemic) [compound 11] too. 100

Same read-out for Cc1cc2c(s1)CCC[C@H]2Nc1ncc(C(F)(F)F)c(N)n1 ? 100

Moving on to Nc1nc(N[C@@H]2CCCc3sccc32)ncc1C(F)(F)F 100

Here is the next compound: Cc1cc2c(s1)CCC[C@H]2Nc1ncc(I)c(N)n1 100

Record: CC(=NO)c1cnc(NC2CCCc3sc(C)cc32)nc1N (racemic) 60

Request: Cc1cc2c(s1)CCCC2Nc1nc(N)c([S+](C)[O-])c(Cl)n1 (racemic) 80

====

System: Matricaria inodora
experiment_description: Pre-emergence herbicidal effect
Format: in vivo
particulars: Dosage 80 g/ha, scored visually after 3 weeks
Kindly state MATIN pre-emergence efficacy (herbicidal activity) for each of the entries shown.
Entry format: amount then unit.

Any idea what MATIN pre-emergence efficacy (herbicidal activity) was measured for Cc1cc2c(s1)CCCC2Nc1ncc(C(=O)C(F)(F)Cl)c(N)n1 (racemic) ? 100%

Continue with Cc1cc2c(s1)CCCC2Nc1ncc(-c2cccc(Cl)c2)c(N)n1 (racemic) 90%

Query Nc1nc(NC2CCCc3sccc32)ncc1S(=O)(=O)C1CC1 (racemic) next 100%

Lookup C/C(=N\O)c1cnc(NC2CCCc3sc(Cl)cc32)nc1C (racemic) 100%

====

System: Abutilon theophrasti
experiment_description: Post-emergence herbicidal effect
Assay type: in vivo
particulars: 320 g/ha, assessed visually after about 3 weeks vs untreated controls
measure: post-emergence efficacy ABUTH (%)
Answer with a number only, understood to be in %.

Under Abutilon theophrasti: post-emergence efficacy ABUTH value of Cc1cc2c(s1)CCCC2Nc1ncc(S(C)(=O)=O)c(N)n1 (racemic) [compound 59] ? 20

Another compound: Cc1cc2c(s1)CCC[C@H]2Nc1ncc(C(F)(F)F)c(N)n1 [compound 47] 90

Can you check Cc1cc2c(s1)CCCC2Nc1nc(N)c(C#N)c(C(C)F)n1 (racemic) [compound 320] next? 80

Same again, this time with Nc1nc(NC2CCc3sc(Cl)cc32)ncc1C(F)(F)F (racemic) [compound 256] 90

Same question for Cc1cc2c(s1)CCC[C@H]2Nc1ncc2c(n1)CCCS2(=O)=O [compound 44] please. 90

Input CC(=O)c1cnc(NC2CCCc3sc(C)cc32)nc1N (racemic) [compound 150] 80

Request: Cc1cc2c(s1)CCCC2Nc1ncc(C#N)c(N)n1 (stereo not drawn) [compound 282] 90

Check C/C(=N\O)c1cnc(NC2CCCc3sc(Cl)cc32)nc1C (racemic) [compound 260] too. 90

Also need Cc1cc2c(s1)CCCC2Nc1nc(N)c(Br)c(C(F)F)n1 (racemic) [compound 314] , thanks. 70

====

System: Matricaria inodora
experiment_description: Pre-emergence herbicidal effect
Format: in vivo
particulars: Dosage 80 g/ha, scored visually after 3 weeks
measure: MATIN pre-emergence efficacy (herbicidal activity) (%)
Just the number in %, nothing appended.

Give the measured MATIN pre-emergence efficacy (herbicidal activity) of Cc1cc2c(s1)CCCC2Nc1ncc(C(=O)C(F)(F)F)c(N)n1 (racemic) [compound 72] . 100

Entry Cc1cc2c(s1)CCCC2Nc1ncc(C(F)(F)F)c(N)n1 (racemic) [compound 61] please 100

Thanks! And Nc1nc(NC2CCc3sc(Cl)cc32)ncc1C(F)(F)F (racemic) [compound 256] ? 100

Param item: Nc1nc(NC2CCc3cc(Cl)sc32)ncc1C(F)(F)F (racemic) [compound 48] 80

Now the same for Cc1cc2c(s1)CCCC2Nc1nc(N)c([S+](C)[O-])c(C(C)F)n1 (racemic) [compound 309] 90

Now try Nc1nc(NC2CCc3sccc32)ncc1C(F)(F)F (racemic) [compound 215] . 100

# iterate: Cc1cc2c(s1)CCC[C@H]2Nc1ncc(I)c(N)n1 [compound 173] 100

Here is the next molecule: Cc1cc2c(s1)CCCC2Nc1ncc(-c2ccccc2)c(N)n1 (racemic) [compound 296] 90

Next molecule up: Cc1cc2c(s1)CCCC2Nc1nc(N)c(Br)c(C(F)F)n1 (racemic) [compound 284] 100

Proceed to Cc1cc2c(s1)CCCC2Nc1nc(N)c(S(C)(=O)=O)c(Cl)n1 (racemic) [compound 16] 100

One more molecule: Cc1cc2c(o1)CCCC2Nc1ncc(S(C)(=O)=O)c(N)n1 (racemic) [compound 62] 80

Same thing, different molecule: CC(=O)c1cnc(NC2CCCc3sccc32)nc1N (centres unmarked) [compound 301] 100

What would you report for CS(=O)(=O)c1cnc(NC2CCCc3sc(Cl)cc32)nc1N (racemic) [compound 42] ? 100

Moving on to Cc1cc2c(s1)C(Nc1ncc3c(n1)CCCC3=O)CCC2 (racemic) [compound 8] 100

Now consider CS(=O)(=O)c1cnc(NC2CCCc3sccc32)nc1N (racemic) [compound 23] . 100

Next record, please: CCOC(=O)c1cnc(NC2CCCc3sc(C)cc32)nc1N (racemic) [compound 293] 70

Follow-up item: CC(=O)c1cnc(NC2CCCc3sc(Cl)cc32)nc1C (centres unmarked) [compound 303] 80
